Recorded values, source patent US10370727B2.

Target: TrkC F617L (Homo sapiens, UniProt Q16288, F617L/S70N)
Sequence (Q16288 32-839 S70N/F617L): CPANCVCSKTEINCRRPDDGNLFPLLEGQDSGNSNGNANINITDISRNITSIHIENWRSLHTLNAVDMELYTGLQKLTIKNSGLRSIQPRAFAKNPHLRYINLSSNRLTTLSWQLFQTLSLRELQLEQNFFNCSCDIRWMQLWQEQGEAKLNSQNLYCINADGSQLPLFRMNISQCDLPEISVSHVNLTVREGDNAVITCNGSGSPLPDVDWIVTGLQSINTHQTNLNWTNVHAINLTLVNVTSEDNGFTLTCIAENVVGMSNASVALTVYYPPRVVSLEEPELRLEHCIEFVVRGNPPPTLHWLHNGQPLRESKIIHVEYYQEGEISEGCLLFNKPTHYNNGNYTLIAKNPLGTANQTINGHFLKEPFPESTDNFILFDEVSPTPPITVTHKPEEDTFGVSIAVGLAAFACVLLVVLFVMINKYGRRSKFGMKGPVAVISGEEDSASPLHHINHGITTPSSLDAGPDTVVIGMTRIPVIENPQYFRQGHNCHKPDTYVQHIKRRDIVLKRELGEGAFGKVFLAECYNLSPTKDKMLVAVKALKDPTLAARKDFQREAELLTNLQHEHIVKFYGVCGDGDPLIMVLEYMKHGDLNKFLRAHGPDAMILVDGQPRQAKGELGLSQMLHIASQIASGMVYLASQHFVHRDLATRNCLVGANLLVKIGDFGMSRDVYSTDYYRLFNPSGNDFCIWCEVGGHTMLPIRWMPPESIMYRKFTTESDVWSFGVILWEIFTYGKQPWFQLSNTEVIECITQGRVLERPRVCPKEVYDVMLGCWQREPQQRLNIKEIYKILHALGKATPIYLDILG
Experiment: Trk enzyme assay ([33P] incorporation into poly-EAY)
Format: biochemical
Details: mutant TrkC F617L enzyme; 22° C., 60 minutes
property: IC50 (nM)
Numbers only, in nM.

// solved cases for IC50 follow
>  <compound>
O=C1OCCOc2ncc(F)cc2[C@H]2CCCN2c2ccn3ncc1c3n2 [Compound 22]

>  <unitsText>
nM

>  <IC50>
5.4

$$$$
>  <compound>
O=C1NC[C@H](O)COc2ccc(F)cc2[C@H]2CC(F)(F)CN2c2ccn3ncc1c3n2 [Compound 26]

>  <unitsText>
nM

>  <IC50>
9.6

$$$$
>  <compound>
O=C(Nc1cnn2ccc(N3CCC[C@@H]3c3cccc(F)c3)nc12)N1CC(O)C1 [Compound 11]

>  <unitsText>
nM

>  <IC50>
476

$$$$

Each of the following entries comes with a recorded value; kindly state IC50 for each.
1. O=C(Nc1cnc2ccc(N3CCC[C@@H]3c3cc(F)ccc3F)nn12)N1CC(O)C1 [Compound 1]
2. O=C1NCCCOc2ccc(F)cc2[C@H]2CCCN2c2ccn3ncc1c3n2 [Compound 19]
3. CN(C)C(=O)Nc1cnc2ccc(N3CCC[C@@H]3c3cc(F)ccc3F)nn12 [Compound 2]
4. CC1(O)CN(C(=O)Nc2cnc3ccc(N4CCC[C@@H]4c4cc(F)ccc4F)nn23)C1 [Compound 7]

[out]
58
5.1
37.6
42.5

Each of the following entries comes with a recorded value; kindly state IC50 for each.
1. C[C@H]1CNC(=O)c2cnn3ccc(nc23)N2CCC[C@@H]2c2cc(F)cn(c2=O)C1 [Compound 24]
2. CN(C)C(=O)Nc1cnn2ccc(N3CCC[C@@H]3c3cc(F)ccc3F)nc12 [Compound 8]

[out]
61.9
67.1

Each of the following entries comes with a recorded value; kindly state IC50 for each.
1. CC1(C)CNC(=O)c2cnn3ccc(nc23)N2CCC[C@@H]2c2cc(F)cnc2OC1 [Compound 25]
2. CC1(O)CN(C(=O)Nc2cnn3ccc(N4CCC[C@@H]4c4cc(F)ccc4Cl)nc23)C1 [Compound 10]
3. O=C1NCC(F)(F)COc2ncc(F)cc2[C@H]2CCCN2c2ccn3ncc1c3n2 [Compound 23]
4. O=C1NCCCOc2cccc(n2)[C@H]2CCCN2c2ccn3ncc1c3n2 [Compound 20]
5. NC(=O)Nc1cnc2ccc(N3CCC[C@@H]3c3cc(F)ccc3F)nn12 [Compound 3]
6. CN(CCO)C(=O)Nc1cnc2ccc(N3CCC[C@@H]3c3cc(F)ccc3F)nn12 [Compound 6]

[out]
1. 8.1
2. 80.1
3. 5.8
4. 18.3
5. 273
6. 49.7

====

Target: TrkA G667C (Homo sapiens, UniProt P04629, G667C)
Sequence (P04629 33-796 G667C): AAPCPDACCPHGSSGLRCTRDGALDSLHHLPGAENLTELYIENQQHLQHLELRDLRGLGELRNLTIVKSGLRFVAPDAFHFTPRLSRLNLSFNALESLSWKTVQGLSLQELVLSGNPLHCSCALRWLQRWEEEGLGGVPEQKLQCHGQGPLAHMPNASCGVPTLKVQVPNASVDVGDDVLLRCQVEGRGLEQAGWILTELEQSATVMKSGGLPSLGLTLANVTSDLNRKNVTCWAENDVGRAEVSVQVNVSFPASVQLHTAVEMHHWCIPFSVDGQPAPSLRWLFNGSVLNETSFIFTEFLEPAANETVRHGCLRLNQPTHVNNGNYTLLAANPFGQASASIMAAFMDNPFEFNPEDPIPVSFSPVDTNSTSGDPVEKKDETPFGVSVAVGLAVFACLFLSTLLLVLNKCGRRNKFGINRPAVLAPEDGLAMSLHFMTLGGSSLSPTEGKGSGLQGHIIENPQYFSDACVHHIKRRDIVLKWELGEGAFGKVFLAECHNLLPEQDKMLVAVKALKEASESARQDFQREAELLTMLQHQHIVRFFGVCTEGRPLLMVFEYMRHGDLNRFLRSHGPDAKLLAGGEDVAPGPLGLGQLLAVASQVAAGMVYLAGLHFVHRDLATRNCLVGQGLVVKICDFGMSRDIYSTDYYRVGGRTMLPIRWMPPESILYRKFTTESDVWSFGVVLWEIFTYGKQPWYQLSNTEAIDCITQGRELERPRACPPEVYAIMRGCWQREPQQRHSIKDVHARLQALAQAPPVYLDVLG
Assay: Trk enzyme assay ([33P] incorporation into poly-EAY)
Format: biochemical
Details: mutant TrkA G667C enzyme; 22° C., 60 minutes
Please assign Criterion not met whenever IC50 is at or above 10 nM, and Criterion met whenever it is below.

Solved entries:
>  <molSmiles>
O=C(NC1CC1)c1cnn2ccc(N3CCC[C@@H]3c3cncc(F)c3)nc12

>  <experimentalSystem>
TrkA G667C (Homo sapiens, UniProt P04629, G667C)

>  <class>
Criterion not met

$$$$
>  <molSmiles>
O=C1NC[C@H](O)COc2ccc(F)cc2[C@H]2CC(F)(F)CN2c2ccn3ncc1c3n2

>  <experimentalSystem>
TrkA G667C (Homo sapiens, UniProt P04629, G667C)

>  <class>
Criterion met

$$$$
>  <molSmiles>
CN(C)C(=O)Nc1cnn2ccc(N3CCC[C@@H]3c3cc(F)ccc3F)nc12

>  <experimentalSystem>
TrkA G667C (Homo sapiens, UniProt P04629, G667C)

>  <class>
Criterion not met

$$$$
>  <molSmiles>
O=C1NCCCOc2ncc(F)cc2[C@H]2CCCN2c2ccn3ncc1c3n2

>  <experimentalSystem>
TrkA G667C (Homo sapiens, UniProt P04629, G667C)

>  <class>
Criterion met

$$$$
>  <molSmiles>
O=C(Nc1cnn2ccc(N3CCC[C@@H]3c3cc(F)ccc3Cl)nc12)N1CC(O)C1

>  <experimentalSystem>
TrkA G667C (Homo sapiens, UniProt P04629, G667C)

>  <class>
Criterion not met

$$$$

[in] Here's an entry: "O=C1OCCOc2ncc(F)cc2[C@H]2CCCN2c2ccn3ncc1c3n2" . Is its IC50 below 10 nM?
[out] Criterion met

[in] Here's an entry: "CONC(=O)c1cnn2ccc(N3CCC[C@@H]3c3cc(F)cnc3OC)nc12" . Is its IC50 below 10 nM?
[out] Criterion met

[in] Here's an entry: "CC(=O)N1CCOc2ccc(F)cc2[C@H]2CCCN2c2ccn3ncc(c3n2)C1" . Is its IC50 below 10 nM?
[out] Criterion not met

[in] Here's an entry: "O=C1NCC(F)(F)COc2ncc(F)cc2[C@H]2CCCN2c2ccn3ncc1c3n2" . Is its IC50 below 10 nM?
[out] Criterion met

[in] Here's an entry: "O=C1NCCCOc2cccc(n2)[C@H]2CCCN2c2ccn3ncc1c3n2" . Is its IC50 below 10 nM?
[out] Criterion not met

[in] Here's an entry: "O=C(Nc1cnn2ccc(N3CCC[C@@H]3c3cccc(F)c3)nc12)N1CC(O)C1" . Is its IC50 below 10 nM?
[out] Criterion not met

[in] Here's an entry: "NC(=O)c1cnn2ccc(N3CCC[C@@H]3c3cc(F)ccc3F)nc12" . Is its IC50 below 10 nM?
[out] Criterion not met
